# test: MK571 concentrations in plasma and kidneys (HPLC)
# Type: in vivo, mice
# measurement.context: mouse, plasma, intraperitoneal, 300 mg/kg, MK571 concentration in plasma, wild-type mice, approximately 120 min after 300 mg/kg i.p.
assay.readout: concentration at 120 min (µM)
# value in µM; strip the unit string

Documented concentration at 120 min of CN(C)C(=O)CCSC(SCCC(=O)O)c1cccc(/C=C/c2ccc3ccc(Cl)cc3n2)c1 (stereo not shown) [MK571] : 251

###

# test: MK571 concentrations in plasma and kidneys (HPLC)
# Assay type: in vivo, mice
# measurement.context: C57BL/6J, mouse, kidney, intraperitoneal, 300 mg/kg, Mean total MK571 concentration in the kidneys, wild-type mice, as restated in discussion
assay.readout: concentration at 120 min (µM)
# value in µM; strip the unit string

Documented concentration at 120 min of CN(C)C(=O)CCSC(SCCC(=O)O)c1cccc(/C=C/c2ccc3ccc(Cl)cc3n2)c1 (stereo not shown) : 544
